test system: MAP3K2; conditions: concentration: 1 μM, replicates: in singlicate; n = 1;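 further: KINOMEscan kinase panel screen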
Doc: threshold 30% (exclusive). Items with %Inh beneath it return Y; others return N.

INSERT INTO assay_data (molecule, system, assigned_category) VALUES
  ('COc1ccc(C2=C(Nc3cccc(O)c3)C(=O)NC2=O)cc1 [SB-390766]', 'MAP3K2', 'Y'),
  ('CN(c1ccc(NC(=O)N2CCN(CCCN3CCOCC3)CC2)cc1)c1ccnc(Nc2ccc(CS(C)(=O)=O)cc2)n1.Cl [GW830899]', 'MAP3K2', 'Y'),
  ('O=C(O)C(F)(F)F.O=c1[nH]ccc2nc(N[C@@H]3CCNC3)nc(Nc3ccc4c(c3)S(=O)(=O)CC4)c12 [GSK2181306]', 'MAP3K2', 'N'),
  ('COc1cc(Nc2nccc(N3CCC(NC(=O)Nc4ccc5c(c4)OCO5)C3)n2)cc(OC)c1OC (centres unmarked) [GSK1379766]', 'MAP3K2', 'Y'),
  ('COc1ccc(C)c(Nc2ccnc(Nc3ccc(-c4cnc[nH]4)cc3)n2)c1.Cl [GW784041]', 'MAP3K2', 'Y'),
  ('COC(=O)Nc1nc2cc(Oc3ccc(NC(=O)Nc4cccc(SC)c4)cc3)ccc2[nH]1.Cl [GW697999]', 'MAP3K2', 'Y'),
  ('N#Cc1cnc2cc(-c3cnc(CNCCN4CCOCC4)s3)ccc2c1Nc1ccc(Oc2ccccc2)cc1 [GW664114]', 'MAP3K2', 'N'),
  ('CC(C)NCC(Cc1ccccc1)NC(=O)c1cc(Br)c(-c2ccnc3[nH]ccc23)s1.Cl.Cl (centres unmarked) [GSK1383281]', 'MAP3K2', 'N');

====

test system: BRSK1; details: concentration: 1 μM, replicates: in singlicate; n = 1
%Inh listing for selected compounds.
QUANTITY_KIND: %Inh (%)

INSERT INTO measurements (compound, u, numeric_readout) VALUES
  ('O=C(Nc1n[nH]c2nc(-c3cccc(O)c3)ccc12)C1CC1 [SB-711805]', '%', 53),
  ('COc1ccc(C2=C(Nc3cccc(O)c3)C(=O)NC2=O)cc1 [SB-390766]', '%', 7),
  ('CCn1c(-c2nonc2N)nc2c(-c3ccccc3)ncc(OCCCN)c21.O=C(O)C(F)(F)F.O=C(O)C(F)(F)F [GSK260205]', '%', 0),
  ('CN1CCN(Cc2ccc(NC(=O)Nc3ccc(N(C)c4ccnc(Nc5ccc(CS(C)(=O)=O)cc5)n4)cc3)cc2)CC1.Cl [GW827654]', '%', 19);

====

test system: TNK1; details: concentration: 1 μM, replicates: in singlicate; n = 1
A collection of molecules and their measured %Inh
QUANTITY_KIND: %Inh (%)

INSERT INTO results (molecule, system, quantity_kind, u, numeric_readout) VALUES
  ('Cc1cc(-c2ccnc(Nc3cccc(C#N)c3)n2)cc(C)c1O', 'TNK1', '%Inh', '%', 0),
  ('COc1cc(Nc2nccc(N3CCC(NS(=O)(=O)c4ccc(NC(C)=O)cc4)CC3)n2)cc(OC)c1OC', 'TNK1', '%Inh', '%', 6),
  ('N#Cc1cnc2cc(-c3cnc(CNCCN4CCOCC4)s3)ccc2c1Nc1ccc(Oc2ccccc2)cc1', 'TNK1', '%Inh', '%', 99),
  ('CC(C)NCC(Cc1ccccc1)NC(=O)c1cc(Br)c(-c2ccnc3[nH]ccc23)s1.Cl.Cl (centres unmarked)', 'TNK1', '%Inh', '%', 0),
  ('CCNC(=O)/C=C/c1n[nH]c2cc(Sc3ccccc3C(=O)NC)ccc12', 'TNK1', '%Inh', '%', 67),
  ('Cc1ccc(-c2ccc3occ(-c4ccc(S(C)=O)cc4)c3c2)nn1 (centres unmarked)', 'TNK1', '%Inh', '%', 0),
  ('Cl.O=C(Nc1ccc(Oc2ccc3[nH]c(NC(=O)c4ccco4)nc3c2)cc1)Nc1cc(C(F)(F)F)ccc1F', 'TNK1', '%Inh', '%', 56),
  ('CCNc1nccc(-c2c(-c3ccc(F)cc3)ncn2C2CCN(C)CC2)n1', 'TNK1', '%Inh', '%', 0),
  ('Cc1cc(-c2c(-c3ccc(F)cc3)ncn2CCCN2CCOCC2)nc(N)n1', 'TNK1', '%Inh', '%', 26),
  ('COc1cc(Nc2nccc(N3CCC(NC(=O)Nc4ccc5c(c4)OCO5)C3)n2)cc(OC)c1OC (centres unmarked)', 'TNK1', '%Inh', '%', 20),
  ('COC(=O)Nc1nc2ccc(Oc3ccc(CC(=O)Nc4cc(C(F)(F)F)ccc4F)cc3)cc2[nH]1', 'TNK1', '%Inh', '%', 0),
  ('CSc1ccc(NC2=C(c3ccc(Cl)cc3)C(=O)NC2=O)cc1', 'TNK1', '%Inh', '%', 41),
  ('CNc1nccc(-c2ccc3c(N)n[nH]c3c2)n1', 'TNK1', '%Inh', '%', 0),
  ('O=C(Nc1n[nH]c2nc(-c3ccccc3)ccc12)C1CC1', 'TNK1', '%Inh', '%', 0),
  ('COC(=O)Nc1nc2ccc(Oc3ccc(NC(=O)Nc4cc(C(F)(F)F)ccc4F)cc3)cc2[nH]1.Cl', 'TNK1', '%Inh', '%', 48),
  ('O=C(Nc1n[nH]c2nc(-c3cccc(O)c3)ccc12)C1CC1', 'TNK1', '%Inh', '%', 4),
  ('c1ccc(Oc2ccc(Nc3ccnc4cc(-c5ccc(CN6CCCCC6)o5)ccc34)cc2)nc1', 'TNK1', '%Inh', '%', 56),
  ('COc1cccc(CC(=O)N2CCc3cc(-c4cn(C)c5ncnc(N)c45)ccc32)c1', 'TNK1', '%Inh', '%', 0),
  ('CN(c1ccc2c(c1)nc(NCc1ccccc1)n2C)c1ccnc(Nc2ccc(CS(C)(=O)=O)cc2)n1.Cl', 'TNK1', '%Inh', '%', 25),
  ('COc1cccc(-c2nc(-c3ccccc3)[nH]c2-c2ccncc2)c1', 'TNK1', '%Inh', '%', 0),
  ('Nc1ncc(-c2ccc3nccc(-c4ccncc4)c3c2)cc1S(=O)(=O)N1CCCCC1', 'TNK1', '%Inh', '%', 0),
  ('CCn1c(-c2nonc2N)nc2c(-c3ccccc3)ncc(OCCCN)c21.O=C(O)C(F)(F)F.O=C(O)C(F)(F)F', 'TNK1', '%Inh', '%', 1),
  ('CCn1cnc2c(NCc3ccccc3)ncnc21', 'TNK1', '%Inh', '%', 2),
  ('CN(c1ccc(NC(=O)Nc2cccc(Cl)c2)cc1)c1ccnc(N)n1.Cl', 'TNK1', '%Inh', '%', 28),
  ('CN1CCN(Cc2ccc(NC(=O)Nc3ccc(N(C)c4ccnc(Nc5ccc(CS(C)(=O)=O)cc5)n4)cc3)cc2)CC1.Cl', 'TNK1', '%Inh', '%', 20),
  ('Cn1cc(-c2ccc3c(c2)CCN3C(=O)Cc2cc(F)cc(F)c2F)c2c(N)ncnc21', 'TNK1', '%Inh', '%', 8);
